Hello, the source for this data is paper PMC9482650, in case you need it.

- TARGET SYSTEM: T1, LNX2_3, Q8N448
- T1 sequence (Q8N448 463-564, limits assumed, looked up): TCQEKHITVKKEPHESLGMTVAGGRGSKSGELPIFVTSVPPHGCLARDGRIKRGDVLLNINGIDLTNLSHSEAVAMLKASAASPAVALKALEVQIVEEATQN
- ASSAY PROCEDURE: holdup assay
- Set-up: key: below the threshold = too weak to quantify, mostly under pKd 3.1 to 4
- PROTOCOL CONDITIONS: plain residues with an end cap or a label only (N-terminal biotin on a linker: ado-ado)
ENDPOINT LABEL: pKd

The reported value for LPHPHSTTRV [NLGN2, Q8NFZ4] in terms of pKd is below the threshold

The reported value for YYKRPVQEWV [MMP24, Q9Y5R2] in terms of pKd is below the threshold

The reported value for KKMPSIESDV [GRIN2A, Q12879] in terms of pKd is below the threshold

The reported value for PRAEAEDSFL [PDGFRB, P09619] in terms of pKd is 3.54
